Target: human NOX4 (Homo sapiens)
Construct: The full-length human NOX4 (NM_016931.3) transcript was cloned
Sequence (Q9NPH5 1-578): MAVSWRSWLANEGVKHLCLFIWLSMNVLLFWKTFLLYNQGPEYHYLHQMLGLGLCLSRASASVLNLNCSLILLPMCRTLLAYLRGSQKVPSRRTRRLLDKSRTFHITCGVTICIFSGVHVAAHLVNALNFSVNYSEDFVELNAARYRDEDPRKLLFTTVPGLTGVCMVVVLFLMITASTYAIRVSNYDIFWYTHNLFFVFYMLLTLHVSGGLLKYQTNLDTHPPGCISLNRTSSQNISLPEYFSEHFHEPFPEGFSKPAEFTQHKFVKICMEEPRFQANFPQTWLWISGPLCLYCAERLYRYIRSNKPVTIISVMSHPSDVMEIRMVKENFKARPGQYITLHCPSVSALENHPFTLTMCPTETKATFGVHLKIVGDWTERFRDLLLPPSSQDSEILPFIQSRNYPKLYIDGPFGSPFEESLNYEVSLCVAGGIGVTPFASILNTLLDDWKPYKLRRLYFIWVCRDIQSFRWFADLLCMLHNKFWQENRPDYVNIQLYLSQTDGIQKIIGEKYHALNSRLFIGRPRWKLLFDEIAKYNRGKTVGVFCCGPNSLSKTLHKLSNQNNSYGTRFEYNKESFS
Sequence (P13498 1-195 partner): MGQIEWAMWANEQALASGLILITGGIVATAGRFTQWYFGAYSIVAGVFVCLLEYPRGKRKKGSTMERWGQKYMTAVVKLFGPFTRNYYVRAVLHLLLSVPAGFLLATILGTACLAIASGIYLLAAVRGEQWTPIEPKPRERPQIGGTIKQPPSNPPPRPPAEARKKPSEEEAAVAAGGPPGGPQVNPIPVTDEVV
Assay: Amplex Red activity assay (cellular H2O2 formation in hNOX4 T-REx-293 cells)
Conditions: tet-induced 24 h, extracellular H2O2 by Amplex Red, 60 min 25° C., geometric mean if determined several times
quantity-name: pIC50
Answers are plain numbers, as −log10 of the molar value.

Guide cases for pIC50, answers given:
[[record]]
compound = "O=C(Nc1ccc2oc(N3CCC(O)CC3)nc2c1)c1ccc2c(c1)CCCO2 [Example 151]"
quantity_name = "pIC50"
data_value = 5.85

[[record]]
compound = "CN1CCOc2ccc(C(=O)Nc3ccc4oc(N5CCCC56COC6)nc4c3)cc21 [Example 184]"
quantity_name = "pIC50"
data_value = 5.72

[[record]]
compound = "O=C(Nc1ccc2oc(N3CCOCC3)nc2c1)c1ccc2c(c1)OCCO2 [Example 173]"
quantity_name = "pIC50"
data_value = 5.85

[[record]]
compound = "O=C(Nc1ccc2oc(N3CC(N4CCS(=O)(=O)CC4)C3)nc2c1)c1ccc2c(c1)CCO2 [Example 19]"
quantity_name = "pIC50"
data_value = 5.54


Below: the item to evaluate.
Input line: Form field: reported pIC50 of O=C(Nc1ccc2oc(N3CCCCC34COC4)nc2c1)c1ccc2c(c1)CCO2 [Example 26]
Output line: 5.83
